Source: ChEMBL document CHEMBL3885861

Species on record: Rattus norvegicus
Measurement description: Open TG-GATES - Regimen: Daily Repeat
Format: toxicity, organism-based, Sprague-Dawley
Parameters: regimen Daily Repeat, gender Male, age 6 weeks
Measurement setup: in vivo, po, 0 mg/kg, […], tissue Plasma, route gavage, dose level Control, time 14 day

Molecule | Unit of measurement | Ca
NC1=NC(=O)C(c2ccccc2)O1 (centres undefined) | mg/dL | 11.2
CC(C)NNC(=O)c1ccncc1 | mg/dL | 10.5
O=C(OC[C@H]1O[C@@H](OC(=O)c2cc(O)c(O)c(OC(=O)c3cc(O)c(O)c(O)c3)c2)[C@H](OC(=O)c2cc(O)c(O)c(OC(=O)c3cc(O)c(O)c(O)c3)c2)[C@@H](OC(=O)c2cc(O)c(O)c(OC(=O)c3cc(O)c(O)c(O)c3)c2)[C@@H]1OC(=O)c1cc(O)c(O)c(OC(=O)c2cc(O)c(O)c(O)c2)c1)c1cc(O)c(O)c(OC(=O)c2cc(O)c(O)c(O)c2)c1 | mg/dL | 10.7
CN1C(=O)CCS(=O)(=O)C1c1ccc(Cl)cc1 (centres undefined) | mg/dL | 11.2
CCCc1cc(=O)[nH]c(=S)[nH]1 | mg/dL | 11
CCOc1ccc(NC(C)=O)cc1 | mg/dL | 10.8
Brc1ccccc1 | mg/dL | 10.8
CN/C(=N/CCSCc1nc[nH]c1C)NC#N | mg/dL | 10.6
Nc1c2c(nc3ccccc13)CCCC2 | mg/dL | 10.7

###

# MCV listing for each entry below
Species: Rattus norvegicus
Measurement description: Open TG-GATES - Regimen: Single
Format: toxicity, organism-based, Sprague-Dawley
Set-up: regimen Single, gender Male, age 6 weeks
Measurement setup: in vivo, po, 1000 mg/kg, 6 h, tissue Blood, route gavage, dose level High

Compound | Unit of measurement | MCV
Cc1nnc2n1-c1ccc(Cl)cc1C(c1ccccc1Cl)=NC2 [TRIAZOLAM] | fL | 62.8
COC(=O)C1=C(C)NC(C)=C(C(=O)OC)C1c1ccccc1[N+](=O)[O-] [NIFEDIPINE] | fL | 62.7
O=C(OC[C@H]1O[C@@H](OC(=O)c2cc(O)c(O)c(OC(=O)c3cc(O)c(O)c(O)c3)c2)[C@H](OC(=O)c2cc(O)c(O)c(OC(=O)c3cc(O)c(O)c(O)c3)c2)[C@@H](OC(=O)c2cc(O)c(O)c(OC(=O)c3cc(O)c(O)c(O)c3)c2)[C@@H]1OC(=O)c1cc(O)c(O)c(OC(=O)c2cc(O)c(O)c(O)c2)c1)c1cc(O)c(O)c(OC(=O)c2cc(O)c(O)c(O)c2)c1 [TANNIC ACID] | fL | 66.1
CNC(=C[N+](=O)[O-])NCCSCc1ccc(CN(C)C)o1 [RANITIDINE] | fL | 62
CN/C(=N/CCSCc1nc[nH]c1C)NC#N [CIMETIDINE] | fL | 63

###

Species: Rattus norvegicus
Measurement description: Open TG-GATES - Regimen: Single
Format: toxicity, organism-based, Sprague-Dawley
Design: regimen Single, gender Male, age 6 weeks
Measurement setup: in vivo, po, 0 mg/kg, 6 h, tissue Blood, route gavage, dose level Control
Outcome measure: Ret

Compound | Recorded result
CCOc1ccc(NC(C)=O)cc1 [PHENACETIN] | 7.6%
Nc1c2c(nc3ccccc13)CCCC2 [TACRINE] | 7.7%
COC(=O)C1=C(C)NC(C)=C(C(=O)OC)C1c1ccccc1[N+](=O)[O-] [NIFEDIPINE] | 8.8%
CN1C(=O)CCS(=O)(=O)C1c1ccc(Cl)cc1 (stereo not given) [CHLORMEZANONE] | 7.8%
Cc1nnc2n1-c1ccc(Cl)cc1C(c1ccccc1Cl)=NC2 [TRIAZOLAM] | 8.5%
CN(C)CCC(c1ccc(Cl)cc1)c1ccccn1 (stereo not given) [CHLORPHENIRAMINE] | 9.5%
CN/C(=N/CCSCc1nc[nH]c1C)NC#N [CIMETIDINE] | 8%
CCCc1cc(=O)[nH]c(=S)[nH]1 [PROPYLTHIOURACIL] | 10.4%
CNC(=C[N+](=O)[O-])NCCSCc1ccc(CN(C)C)o1 [RANITIDINE] | 7.6%
O=C(OC[C@H]1O[C@@H](OC(=O)c2cc(O)c(O)c(OC(=O)c3cc(O)c(O)c(O)c3)c2)[C@H](OC(=O)c2cc(O)c(O)c(OC(=O)c3cc(O)c(O)c(O)c3)c2)[C@@H](OC(=O)c2cc(O)c(O)c(OC(=O)c3cc(O)c(O)c(O)c3)c2)[C@@H]1OC(=O)c1cc(O)c(O)c(OC(=O)c2cc(O)c(O)c(O)c2)c1)c1cc(O)c(O)c(OC(=O)c2cc(O)c(O)c(O)c2)c1 [TANNIC ACID] | 10.1%
